target: HIPK2 (human) (UniProt Q9H2X6); assay: radiometric filter-binding kinase assay, Kinase HotSpot; details: compound 0.5 µM; ATP 10 µM
Sequence (Q9H2X6 whole entry, looked up): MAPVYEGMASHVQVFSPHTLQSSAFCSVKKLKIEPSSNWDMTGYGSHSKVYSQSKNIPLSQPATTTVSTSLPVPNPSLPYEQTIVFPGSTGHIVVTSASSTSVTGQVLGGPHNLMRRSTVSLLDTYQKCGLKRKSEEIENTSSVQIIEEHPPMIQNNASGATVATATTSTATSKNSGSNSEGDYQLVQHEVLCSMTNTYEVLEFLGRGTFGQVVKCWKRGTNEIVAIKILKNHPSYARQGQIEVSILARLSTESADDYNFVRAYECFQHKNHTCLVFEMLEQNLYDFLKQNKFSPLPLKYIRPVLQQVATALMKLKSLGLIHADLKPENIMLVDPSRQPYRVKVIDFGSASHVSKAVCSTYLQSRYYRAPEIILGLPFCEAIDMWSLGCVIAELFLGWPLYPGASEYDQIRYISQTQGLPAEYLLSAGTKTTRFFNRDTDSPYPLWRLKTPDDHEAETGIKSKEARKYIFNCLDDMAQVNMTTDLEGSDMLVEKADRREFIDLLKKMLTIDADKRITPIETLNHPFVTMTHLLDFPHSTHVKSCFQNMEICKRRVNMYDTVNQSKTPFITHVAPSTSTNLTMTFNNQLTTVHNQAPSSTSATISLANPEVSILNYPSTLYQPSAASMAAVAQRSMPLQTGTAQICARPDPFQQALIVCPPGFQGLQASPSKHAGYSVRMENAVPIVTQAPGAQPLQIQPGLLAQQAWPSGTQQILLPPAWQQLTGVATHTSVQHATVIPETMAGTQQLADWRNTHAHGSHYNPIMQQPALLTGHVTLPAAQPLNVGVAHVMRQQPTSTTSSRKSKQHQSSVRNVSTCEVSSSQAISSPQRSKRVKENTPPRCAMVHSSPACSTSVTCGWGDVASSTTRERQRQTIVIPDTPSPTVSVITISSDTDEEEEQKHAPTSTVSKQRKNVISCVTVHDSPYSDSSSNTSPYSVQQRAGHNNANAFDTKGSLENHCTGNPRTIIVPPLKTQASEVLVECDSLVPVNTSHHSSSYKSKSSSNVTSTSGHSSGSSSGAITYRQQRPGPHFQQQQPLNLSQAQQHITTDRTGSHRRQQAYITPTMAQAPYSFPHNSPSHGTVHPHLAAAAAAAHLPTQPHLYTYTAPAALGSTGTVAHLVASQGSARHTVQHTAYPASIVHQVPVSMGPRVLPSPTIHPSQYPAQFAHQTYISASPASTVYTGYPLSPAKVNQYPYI
MEASURED METRIC: residual activity

INSERT INTO measurements (input_smiles, data_value) VALUES
  ('CCc1nc(-c2ccc(OC)cc2)[nH]c1-c1ccncc1', '93.6%'),
  ('FC(F)(F)c1ccc(/C=C/c2nc(COc3ccc(CCCCn4ccnn4)cc3)co2)cc1', '90.2%'),
  ('Nc1ncnc2c1cnn2-c1ccccc1', '103%'),
  ('N#C/C(=C1/Nc2ccccc2S1)c1ccnc(NCCc2cccnc2)n1', '95.8%'),
  ('O=C(c1ccccc1)c1ccc(N2CCOCC2)cc1O', '105%'),
  ('CCOc1cc2ncnc(Nc3cccc(Br)c3)c2cc1OCC', '96.8%');

Source listed as the kinase profiling compilation of Christmann-Franck et al. (2016).
